Data provenance: patent US20030082641A1

- TARGET_OR_TEST_SYSTEM: T1, human GALR3 receptor (human, UniProt O60755 1-368)
- T1 construct: also called hGALR3; hGalR3
- T1 sequence: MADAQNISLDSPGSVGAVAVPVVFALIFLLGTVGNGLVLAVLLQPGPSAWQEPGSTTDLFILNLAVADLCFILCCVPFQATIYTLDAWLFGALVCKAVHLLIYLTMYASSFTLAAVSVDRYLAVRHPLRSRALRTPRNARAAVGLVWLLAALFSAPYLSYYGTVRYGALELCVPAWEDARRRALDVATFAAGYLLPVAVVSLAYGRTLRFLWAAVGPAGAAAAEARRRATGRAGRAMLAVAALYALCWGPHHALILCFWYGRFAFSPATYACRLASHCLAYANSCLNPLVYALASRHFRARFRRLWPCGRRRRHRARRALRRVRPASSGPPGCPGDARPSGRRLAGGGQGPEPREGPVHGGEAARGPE
- EXPERIMENT_NOTES: displacement of porcine 125I-galanin; human GALR3 in LMTK- #8
Please respond with reported Ki for every item in the list.
Write the numeric value and follow it with the unit.

Ask: Fill blank: measured Ki of the binder GWTLNSAGYLLG (peptide, UniProt P07480 33-44, looked up, range 1-12; Range counts on the galanin peptide) [Porcine galanin 1-12] is ____.
Reply: 307 nM

Ask: Fill blank: measured Ki of the binder SPVKEKRGWTLNSAGYLLGPHAIDNHRSFHDKYGLA (peptide, UniProt P07480 26-61, looked up, range -7 to +29; also called galanin -7 to +29; Gal -7-29) [(-7) to (+29) galanin, porcine] is ____.
Reply: 28.8 nM

Ask: Fill blank: measured Ki of the binder LGSPVKEKRGWTLNSAGYLLGPHAIDNHRSFHDKYGLA (peptide, UniProt P07480 24-61, looked up, range -9 to +29; also called galanin -9 to +29) [(-) 9 to (+) 29 galanin, porcine] is ____.
Reply: 50.1 nM

Ask: Fill blank: measured Ki of the binder GWTLNSAGYLLGPHA (peptide, UniProt P07480 33-47, looked up, range 1-15; Range counts on the galanin peptide) [Porcine galanin 1-15] is ____.
Reply: 309 nM
